Ref: patent US20210324028A1

- SUBJECT_OF_TEST: T1, human IL-2Rβ (human, UniProt P14784 27-240, limits assumed)
- T1 construct: also called hIL-2Rβ; IL-2 receptor beta
- T1 sequence (looked up): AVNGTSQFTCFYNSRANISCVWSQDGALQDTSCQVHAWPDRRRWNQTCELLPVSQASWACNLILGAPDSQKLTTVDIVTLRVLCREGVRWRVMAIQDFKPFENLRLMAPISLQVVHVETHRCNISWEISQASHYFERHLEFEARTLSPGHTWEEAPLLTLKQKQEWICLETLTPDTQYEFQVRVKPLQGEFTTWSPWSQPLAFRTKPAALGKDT
- ASSAY: SPR, steady state
MEASUREMENT_LABEL: Kd

// solved cases for Kd follow
- BINDER: "hIL-15 V49R/K11M (ligand) NWVNVISDLKMIEDLIQSMHIDATLYTESDVHPSCKVTAMKCFLLELQRISLESGDASIHDTVENLIILANNSLSSNGNVTESGCKECEELEEKNIKEFLQSFVHIVQMFINTGGGGSGHHHHHHHHGGGLNDIFEAQKIEWHE"
  Kd: "180 nM"
- BINDER: "hIL-15 V49R/N1Q (ligand) QWVNVISDLKKIEDLIQSMHIDATLYTESDVHPSCKVTAMKCFLLELQRISLESGDASIHDTVENLIILANNSLSSNGNVTESGCKECEELEEKNIKEFLQSFVHIVQMFINTGGGGSGHHHHHHHHGGGLNDIFEAQKIEWHE"
  Kd: "> 500 nM"
- BINDER: "hIL-15 V49R/D30A (ligand) NWVNVISDLKKIEDLIQSMHIDATLYTESAVHPSCKVTAMKCFLLELQRISLESGDASIHDTVENLIILANNSLSSNGNVTESGCKECEELEEKNIKEFLQSFVHIVQMFINTGGGGSGHHHHHHHHGGGLNDIFEAQKIEWHE"
  Kd: "273 nM"

Task: Request the reported Kd associated with hIL-15 V49R/E64T (ligand) NWVNVISDLKKIEDLIQSMHIDATLYTESDVHPSCKVTAMKCFLLELQRISLESGDASIHDTVTNLIILANNSLSSNGNVTESGCKECEELEEKNIKEFLQSFVHIVQMFINTGGGGSGHHHHHHHHGGGLNDIFEAQKIEWHE
Result: > 500 nM
